# MEASURED_ON: Carbonic anhydrase 2 (Homo sapiens)
# PROCEDURE_DETAILS: Inhibition of human recombinant carbonic anhydrase 2 incubated for 15 mins prior to testing by stopped-flow CO2 hydration assay
ASSAY_METRIC: Ki (nM)

The cases that follow already have their Ki on record.
[[record]]
smiles_input = "CN1C(=O)/C(=N\\CCc2ccc(S(N)(=O)=O)cc2)c2cc(Br)ccc21"
assay_metric = "Ki"
readout_unit = "nM"
result_value = 5.9

[[record]]
smiles_input = "NS(=O)(=O)c1ccc(CC/N=C2\\NC(=O)/C(=C3/C(=O)Nc4ccc(Cl)cc43)S2)cc1"
assay_metric = "Ki"
readout_unit = "nM"
result_value = 302

[[record]]
smiles_input = "Cc1ccc2c(c1)/C(=C1/S/C(=N/CCc3ccc(S(N)(=O)=O)cc3)NC1=O)C(=O)N2"
assay_metric = "Ki"
readout_unit = "nM"
result_value = 63.9


a: CN1C(=O)/C(=N\CCc2ccc(S(N)(=O)=O)cc2)c2cc(Cl)ccc21
b: NS(=O)(=O)c1ccc(CC/N=C2\NC(=O)/C(=C3/C(=O)Nc4ccc([N+](=O)[O-])cc43)S2)cc1
## Input Of a and b , which one carries the higher reported Ki? Output the label that corresponds to your choice.
## Output b
